- protocolDescription: Brain exposure assay in mice (brain-to-plasma ratio after oral administration)
- Type: in vivo
- statedConditions: mouse, 100 mg/kg, 2 hr
For each of the compounds below, state its Cbrain, free (μM).

These solved cases illustrate the format of a correct answer.
CN(C)S(=O)(=O)N1CCC(Cc2ccc(NC(=O)OCc3cnco3)cc2)CC1; 0.64, μM
CN(C)C(=O)N1CC2(CC(c3ccc(NC(=O)OCc4cnco4)cc3F)C2)C1; 0.31, μM
CN(C)C(=O)N1CCC[C@H](c2ccc(NC(=O)OCc3cnco3)cc2)C1; 2.2, μM
CN(C)C(=O)N1CCC(Cc2ccc(NC(=O)OCc3cnco3)cc2F)CC1; 0.83, μM

Dear colleague, I am looking for the recorded Cbrain, free (μM) of the following compound: CN(C)S(=O)(=O)N1CC2(CC(Cc3ccc(NC(=O)OCc4cnco4)cc3F)C2)C1 0.23, μM

* * *

- protocolDescription: Brain exposure assay in mice (brain-to-plasma ratio after oral administration)
- Format: in vivo
- statedConditions: male, C57BL/6JNIFDC, oral, 100 mg/kg; mouse, 2 hr; unbound brain-to-plasma partition coefficient
Provide the reported Kp uu at 2 h of each item.

CN(C)C(=O)N1CC2(CC(c3ccc(NC(=O)OCc4cnco4)cc3F)C2)C1; 0.53
CN(C)S(=O)(=O)N1CCC(Cc2ccc(NC(=O)OCc3cnco3)cc2)CC1; 0.41
CN(C)C(=O)N1CCC(Cc2ccc(NC(=O)OCc3cnco3)cc2F)CC1; 0.64
CN(C)S(=O)(=O)N1CC2(CC(Cc3ccc(NC(=O)OCc4cnco4)cc3F)C2)C1; 0.52

Here's the next entry for you.
Give the measured Kp uu at 2 h of CN(C)C(=O)N1CCC[C@H](c2ccc(NC(=O)OCc3cnco3)cc2)C1 . 0.89

* * *

- systemTested: UniProt:P43490
- Sequence (P43490 whole entry): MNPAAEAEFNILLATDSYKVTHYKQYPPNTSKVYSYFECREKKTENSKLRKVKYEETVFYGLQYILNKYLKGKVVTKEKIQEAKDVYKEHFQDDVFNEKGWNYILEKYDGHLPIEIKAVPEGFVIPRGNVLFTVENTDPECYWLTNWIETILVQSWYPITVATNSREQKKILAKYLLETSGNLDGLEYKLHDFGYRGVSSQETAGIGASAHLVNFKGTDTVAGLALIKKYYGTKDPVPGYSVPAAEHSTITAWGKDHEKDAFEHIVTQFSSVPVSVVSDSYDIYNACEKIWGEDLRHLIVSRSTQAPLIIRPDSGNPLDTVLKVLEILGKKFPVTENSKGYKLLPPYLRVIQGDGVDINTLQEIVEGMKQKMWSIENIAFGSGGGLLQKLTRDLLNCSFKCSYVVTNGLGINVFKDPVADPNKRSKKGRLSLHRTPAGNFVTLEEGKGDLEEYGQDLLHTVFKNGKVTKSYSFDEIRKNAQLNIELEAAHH
- protocolDescription: NMN fluorescence biochemical assay (human recombinant NAMPT enzyme assay)
Where a name gives a salt, the structure may show the parent alone.
measuredParameter: pEC50
Answers are plain numbers, as −log10 of the molar value.

Cc1nc(C)c(C(=O)N[C@@H](C)c2ccc(NC(=O)OCc3ccc(Cl)cc3)cc2)o1; 5.22
O=C(Nc1ccc(CC2CCNCC2)cc1)OCc1ccc(Cl)cc1 [Compound 231, hydrochloride]; 4.47
O=C(Nc1ccc(CC(=O)N2CCC(F)(F)CC2)cc1)OCc1ccc(Cl)cc1; 5.21
O=C(Nc1ccc(Cc2ccncc2)cc1)OCc1cnco1; 4.47
CC(C)C(=O)N1CCC2(CC(Cc3ccc(NC(=O)OCc4cnco4)cc3F)C2)C1 (stereo not drawn); 5.53
Cc1ncc(C(=O)N(C)Cc2ccc(NC(=O)OCc3ccc(Cl)cc3)cc2)o1; 5.20
CN(C)C(=O)N1CCC2(CC(c3ccc(NC(=O)OCc4cnco4)cc3F)C2)C1 (single isomer, unassigned) [Compound 364]; 5.40
COC(=O)N1CCC(c2ccc(NC(=O)OCc3cnco3)cc2F)CC1; 4.57
Cc1cnn(C)c1C(=O)NCc1ccc(NC(=O)OCc2ccc(Cl)cc2)cc1; 5.73
O=C(Nc1ccc(CC2CC3CCC(C2)N3S(=O)(=O)C2CCC2)cc1)OCc1cnco1 (stereo not drawn); 5.34

For each of the molecules below, state pEC50.
1. O=C(Nc1ccc(CNC(=O)c2ccnn2C2CCC2)cc1)OCc1ccc(Cl)cc1
2. O=C(Nc1ccc(CCC2CCNCC2)cc1)OCc1cnco1 [Compound 252, hydrochloride]
3. COC(=O)N1CCC(Cc2ccc(NC(=O)OCc3cnco3)cc2)C2CC21 (stereo not drawn)

1: 4.68; 2: 4.58; 3: 4.75
